- System: A549
- PROCEDURE_DETAILS: Cytotoxicity against human A549 cells assessed as cell viability after 48 hrs
- Type: functional, cell-based
- EXPERIMENTAL_PARAMETERS: A549, 48 h
pIC50: −log10 of the molar value.
The following compounds are listed with their measured pIC50 values.

Tell us which pIC50 value is on record for "C=C(C)[C@@H]1CC[C@]2(C(=O)O)CC[C@]3(C)[C@H](CC[C@@H]4[C@@]5(C)CC[C@H](O[C@@H]6OC[C@@H](O)[C@H](O)[C@H]6O)C(C)(C)[C@@H]5CC[C@]43C)[C@@H]12" 4.82

Continuing:
# return recorded pIC50 for input "C=C(C)[C@@H]1CC[C@]2(CO)CC[C@]3(C)[C@H](CC[C@@H]4[C@@]5(C)CC[C@H](O[C@@H]6O[C@H](CO)[C@@H](O)[C@H](O)[C@H]6O)C(C)(C)[C@@H]5CC[C@]43C)[C@@H]12" < 4.12

For the compound "CC1(C)CC[C@]23CC[C@]4(C)[C@H](CC[C@@H]5[C@@]6(C)CC[C@H](O[C@H]7O[C@H](CO)[C@@H](O)[C@H](O)[C@@H]7O)C(C)(C)[C@@H]6CC[C@]54C)[C@H]2[C@@H]1OC3" , give its reported pIC50. < 4.12

Return pIC50 (reported value) for this compound: "CC1(C)CC[C@]23CC[C@]4(C)[C@H](CC[C@@H]5[C@@]6(C)CC[C@H](O[C@H]7OC[C@H](O)[C@H](O)[C@H]7O)C(C)(C)[C@@H]6CC[C@]54C)[C@H]2[C@@H]1OC3" < 4.12

Answer with the recorded pIC50 of "CC1(C)CC[C@]23CC[C@]4(C)[C@H](CC[C@@H]5[C@@]6(C)CC[C@H](O[C@@H]7O[C@H](CO)[C@@H](O)[C@H](O)[C@H]7O)C(C)(C)[C@@H]6CC[C@]54C)[C@H]2[C@@H]1OC3=O" only. < 4.12

Respond only with pIC50 recorded for "C[C@@H]1O[C@H](O[C@H]2CC[C@]3(C)[C@H]4CC[C@@H]5[C@H]6[C@@H]7OC(=O)[C@@]6(CCC7(C)C)CC[C@@]5(C)[C@]4(C)CC[C@H]3C2(C)C)[C@@H](O)[C@@H](O)[C@@H]1O" < 4.12

Using known records, supply pIC50 for "CC1(C)CC[C@]23CC[C@]4(C)[C@H](CC[C@@H]5[C@@]6(C)CC[C@H](O)C(C)(C)[C@@H]6CC[C@]54C)[C@H]2[C@H]1OC3" < 4.12

Identify measured pIC50 associated with "C=C(C)[C@@H]1CC[C@]2(C(=O)O)CC[C@]3(C)[C@H](CC[C@@H]4[C@@]5(C)CC[C@H](OC(C)=O)C(C)(C)[C@@H]5CC[C@]43C)[C@@H]12" 4.74

Output pIC50 of "C=C(C)[C@@H]1CC[C@]2(C(=O)O)CC[C@]3(C)[C@H](CC[C@@H]4[C@@]5(C)CC[C@H](O[C@@H]6O[C@H](CO)[C@@H](O)[C@H](O)[C@H]6O)C(C)(C)[C@@H]5CC[C@]43C)[C@@H]12" < 4.12

These measurements were taken from ChEMBL document CHEMBL1149652.
